# key: entry, value: pIC50
Biological target: human PI3Kα protein (Homo sapiens)
Construct: purchased Carna Biosciences, Inc; host or cells: Baculovirus expression system
Test: PI3Kα enzyme assay (ADP-Glo kinase assay)
Assay type: biochemical
Details: IC50 class; 3 nM PI3Kα, 50 μM PIP2, 100 μM ATP; read-out: PI3Kα Inhibitory Activity
pIC50: −log10 of the molar value.

Answered examples (2):
# Molecule, pIC50
records = [
    ("O=C(Nc1ccc2ncc(-c3ccccc3)cc2n1)NC1CCCC1 [Compound 0006]", "6.00 to 7.00"),
    ("C[C@H](C[C@H](C)NC(=O)Nc1ccc2ncc(-c3cn[nH]c3)cc2n1)Oc1ccccc1 [Compound 0162]", "6.00 to 7.00"),
]

Looking up O=C(Nc1ccc2ncc(-c3ccnc(F)c3)cc2n1)NC1CCCC1 [Compound 0039] , I found its pIC50 recorded as 6.00 to 7.00

Looking up Cn1cc(-c2cnc3ccc(NC(=O)NC4CCCC4)nc3c2Cl)cn1 [Compound 0226] , I found its pIC50 recorded as > 7.00

Looking up CCOC(=O)CNC(=O)Nc1ccc2ncc(-c3cn[nH]c3)cc2n1 [Compound 0062] , I found its pIC50 recorded as 5.00 to 6.00

###

Target: glutathione S-transferase (GST)-fusion human ERK2 protein (Homo sapiens, UniProt P28482)
Construct: purchased Carna Biosciences, Inc; host or cells: E. coli expression system
Sequence (P28482 whole entry, the tested form may be a part): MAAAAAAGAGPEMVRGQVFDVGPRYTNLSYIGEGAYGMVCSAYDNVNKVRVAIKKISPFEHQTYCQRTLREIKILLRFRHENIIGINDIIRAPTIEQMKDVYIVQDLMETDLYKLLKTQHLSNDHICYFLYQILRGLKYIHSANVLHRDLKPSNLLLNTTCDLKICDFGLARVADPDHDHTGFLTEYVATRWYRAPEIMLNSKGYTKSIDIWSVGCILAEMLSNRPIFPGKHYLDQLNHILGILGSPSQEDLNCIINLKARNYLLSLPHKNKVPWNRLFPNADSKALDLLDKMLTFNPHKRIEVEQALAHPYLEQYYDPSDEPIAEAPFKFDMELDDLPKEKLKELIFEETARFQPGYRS
Test: ERK2 enzyme assay (LabChip mobility shift)
Type: biochemical
Conditions: IC50 class; 2 nM ERK2, 4.25 μM FL-Peptide 8, 43 μM ATP; read-out: ERK2 Inhibitory Activity
pIC50: −log10 of the molar value.
Assay readout: pIC50

# Molecule, System tested, pIC50
records = [
    ("C[C@H](C[C@H](C)Oc1ccccc1)NC(=O)Nc1ccc2ncc(-c3cn[nH]c3)cc2n1", "glutathione S-transferase (GST)-fusion human ERK2 protein (Homo sapiens, UniProt P28482)", "> 7.00"),
    ("O=C(Nc1ccc2ncc(N3CCOCC3)cc2n1)NC1CCCC1", "glutathione S-transferase (GST)-fusion human ERK2 protein (Homo sapiens, UniProt P28482)", "> 7.00"),
    ("O=C(NCc1cccnc1)Nc1ccc2ncc(-c3cn[nH]c3)cc2n1", "glutathione S-transferase (GST)-fusion human ERK2 protein (Homo sapiens, UniProt P28482)", "> 7.00"),
    ("CC(=O)N1CCN(c2cnc3ccc(NC(=O)NC4CCCC4)nc3c2)CC1", "glutathione S-transferase (GST)-fusion human ERK2 protein (Homo sapiens, UniProt P28482)", "6.00 to 7.00"),
]

Looking up `O=C(Nc1ccc2ncc(-c3ccc4[nH]ncc4c3)cc2n1)NC1CCCC1` , I found its pIC50 recorded as > 7.00

Looking up `COc1ccc(Nc2cnc3ccc(NC(=O)NC4CCCC4)nc3c2)cc1` , I found its pIC50 recorded as < 5.00

Looking up O=C(Nc1ccc2ncc(-c3cn[nH]c3)cc2n1)NC1CCN(Cc2ccccc2)C1 (centres unmarked) , I found its pIC50 recorded as > 7.00

###

Target: human PI3Kα protein (Homo sapiens, UniProt P42336)
Construct: purchased Carna Biosciences, Inc; host or cells: Baculovirus expression system
Sequence (P42336 whole entry): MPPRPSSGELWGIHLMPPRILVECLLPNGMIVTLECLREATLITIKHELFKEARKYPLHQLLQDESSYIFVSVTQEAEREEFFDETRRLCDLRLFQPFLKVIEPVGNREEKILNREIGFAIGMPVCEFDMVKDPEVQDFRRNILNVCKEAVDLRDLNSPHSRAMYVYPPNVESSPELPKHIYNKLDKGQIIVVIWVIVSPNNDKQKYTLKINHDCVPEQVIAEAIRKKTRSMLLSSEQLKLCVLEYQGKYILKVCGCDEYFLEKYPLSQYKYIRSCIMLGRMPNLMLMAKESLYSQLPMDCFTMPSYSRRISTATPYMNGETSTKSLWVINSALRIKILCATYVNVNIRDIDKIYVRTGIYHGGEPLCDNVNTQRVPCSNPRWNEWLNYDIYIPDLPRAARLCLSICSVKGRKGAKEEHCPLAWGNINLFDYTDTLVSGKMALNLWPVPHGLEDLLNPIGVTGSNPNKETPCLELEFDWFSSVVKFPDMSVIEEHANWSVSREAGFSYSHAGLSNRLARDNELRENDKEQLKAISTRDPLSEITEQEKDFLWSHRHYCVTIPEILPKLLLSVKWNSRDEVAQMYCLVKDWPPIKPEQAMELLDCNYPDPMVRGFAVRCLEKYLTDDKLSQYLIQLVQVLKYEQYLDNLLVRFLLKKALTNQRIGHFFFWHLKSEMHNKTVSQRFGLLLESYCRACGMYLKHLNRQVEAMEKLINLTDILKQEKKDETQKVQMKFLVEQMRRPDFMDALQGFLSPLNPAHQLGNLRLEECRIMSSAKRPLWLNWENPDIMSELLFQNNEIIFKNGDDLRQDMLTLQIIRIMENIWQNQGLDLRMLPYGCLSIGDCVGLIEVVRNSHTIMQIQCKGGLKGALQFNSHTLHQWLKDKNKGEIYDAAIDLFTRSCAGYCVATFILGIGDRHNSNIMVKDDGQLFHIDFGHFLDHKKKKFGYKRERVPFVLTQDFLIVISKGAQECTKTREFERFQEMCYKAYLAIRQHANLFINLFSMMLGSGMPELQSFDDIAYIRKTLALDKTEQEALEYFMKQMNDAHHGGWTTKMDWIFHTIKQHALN
Sequence (P27986 whole entry partner): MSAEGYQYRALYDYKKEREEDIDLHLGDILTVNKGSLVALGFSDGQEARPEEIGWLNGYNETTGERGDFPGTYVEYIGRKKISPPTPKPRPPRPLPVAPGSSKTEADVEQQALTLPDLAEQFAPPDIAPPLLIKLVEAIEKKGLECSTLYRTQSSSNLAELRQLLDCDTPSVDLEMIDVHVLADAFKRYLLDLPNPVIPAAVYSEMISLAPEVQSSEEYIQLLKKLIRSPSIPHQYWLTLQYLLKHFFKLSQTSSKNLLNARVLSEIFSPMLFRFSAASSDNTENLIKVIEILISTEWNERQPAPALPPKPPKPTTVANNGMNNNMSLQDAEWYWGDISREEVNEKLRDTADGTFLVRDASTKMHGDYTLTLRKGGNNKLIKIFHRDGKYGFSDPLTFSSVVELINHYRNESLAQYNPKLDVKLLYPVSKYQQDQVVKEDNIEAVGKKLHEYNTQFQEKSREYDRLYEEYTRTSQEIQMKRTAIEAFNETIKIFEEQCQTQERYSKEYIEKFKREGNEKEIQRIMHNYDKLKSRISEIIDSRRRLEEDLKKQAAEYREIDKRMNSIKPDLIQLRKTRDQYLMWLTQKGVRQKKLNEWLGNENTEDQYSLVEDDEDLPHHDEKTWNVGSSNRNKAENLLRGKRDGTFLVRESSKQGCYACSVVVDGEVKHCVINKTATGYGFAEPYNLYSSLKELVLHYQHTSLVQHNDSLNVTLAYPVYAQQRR
Assay: PI3Kα enzyme assay (ADP-Glo kinase assay)
Type: biochemical
Conditions: IC50 class; 3 nM PI3Kα, 50 μM PIP2, 100 μM ATP; read-out: PI3Kα Inhibitory Activity
pIC50: −log10 of the molar value.
Assay readout: pIC50

Answered examples (5):
# Compound, System tested, Assay readout, Obs value
rows = [
    ("COc1ccc(C(=O)Nc2cnc3ccc(NC(=O)NC4CCCC4)nc3c2)cc1", "human PI3Kα protein (Homo sapiens, UniProt P42336)", "pIC50", "> 7.00"),
    ("COc1cc(-c2cnc3ccc(NC(=O)NC4CCCC4)nc3c2)ccc1O", "human PI3Kα protein (Homo sapiens, UniProt P42336)", "pIC50", "> 7.00"),
    ("C[C@@H]1CN(c2cnc3ccc(NC(=O)NC4CCCC4)nc3c2)C[C@H](C)O1", "human PI3Kα protein (Homo sapiens, UniProt P42336)", "pIC50", "> 7.00"),
    ("O=C(NCC1CCOC1)Nc1ccc2ncc(-c3cn[nH]c3)cc2n1 (stereo not drawn)", "human PI3Kα protein (Homo sapiens, UniProt P42336)", "pIC50", "6.00 to 7.00"),
    ("COCCNCCn1cc(-c2cnc3ccc(NC(=O)NC4CCCC4)nc3c2)cn1", "human PI3Kα protein (Homo sapiens, UniProt P42336)", "pIC50", "> 7.00"),
]

Continue with the next compound.
Looking up `Cc1n[nH]cc1-c1cnc2ccc(NC(=O)NC3CCCC3)nc2c1` , I found its pIC50 recorded as > 7.00

###

Target: glutathione S-transferase (GST)-fusion human ERK2 protein (Homo sapiens, UniProt P28482)
Construct: purchased Carna Biosciences, Inc; host or cells: E. coli expression system
Assay: ERK2 enzyme assay (LabChip mobility shift)
Format: biochemical
Conditions: IC50 class; 2 nM ERK2, 4.25 μM FL-Peptide 8, 43 μM ATP; read-out: ERK2 Inhibitory Activity
# key: entry, value: IC50

Answered examples (7):
# Molecule, IC50
rows = [
    ("C[C@@H](CN(C)C)Cn1cc(-c2cnc3ccc(NC(=O)NC4CCCC4)nc3c2)cn1 [Compound 0245]", "0.1 to 1 µM"),
    ("Cn1cc(-c2cnc3ccc(NC(=O)NC4CCCC4)nc3c2)cn1 [Compound 0003]", "< 0.1 µM"),
    ("CC(C)[C@H](C)NC(=O)Nc1ccc2ncc(-c3cn[nH]c3)cc2n1 [Compound 0083]", "< 0.1 µM"),
    ("O=C(Nc1ccc2ncc(-c3cnc4[nH]ccc4c3)cc2n1)NC1CCCC1 [Compound 0123]", "1 to 10 µM"),
    ("O=C(Nc1ccc2ncc(-c3ccnc(F)c3)cc2n1)NC1CCCC1 [Compound 0039]", "< 0.1 µM"),
    ("CN(C)CCn1cc(-c2cnc3ccc(NC(=O)NC4CCCC4)nc3c2)cn1 [Compound 0018]", "0.1 to 1 µM"),
    ("CN(C)CCNC(=O)C1CCN(c2cnc3ccc(NC(=O)NC4CCCC4)nc3c2)CC1 [Compound 0150]", "1 to 10 µM"),
]

Continue with the next molecule.
Looking up CN1CCC(n2cc(-c3cnc4ccc(NC(=O)NC5CCCC5)nc4c3)cn2)CC1 [Compound 0228] , I found its IC50 recorded as < 0.1 µM

###

Biological target: human PI3Kα protein (Homo sapiens)
Construct: purchased Carna Biosciences, Inc; host or cells: Baculovirus expression system
Assay: PI3Kα enzyme assay (ADP-Glo kinase assay)
Assay type: biochemical
Settings: IC50 class; 3 nM PI3Kα, 50 μM PIP2, 100 μM ATP; read-out: PI3Kα Inhibitory Activity
pIC50: −log10 of the molar value.
Assay readout: pIC50

# Smiles input, System tested, pIC50
measured = [
    ("CN(C)Cc1nn(C)cc1-c1cnc2ccc(NC(=O)NC3CCCC3)nc2c1", "human PI3Kα protein (Homo sapiens)", "> 7.00"),
    ("O=C(Nc1ccc2ncc(-c3cnco3)cc2n1)NC1CCCC1", "human PI3Kα protein (Homo sapiens)", "> 7.00"),
    ("O=C(NCc1cccnc1)Nc1ccc2ncc(-c3cn[nH]c3)cc2n1", "human PI3Kα protein (Homo sapiens)", "5.00 to 6.00"),
    ("CC(C)(C)NC(=O)Nc1ccc2ncc(-c3cnn(CCCN4CCNCC4)c3)cc2n1", "human PI3Kα protein (Homo sapiens)", "> 7.00"),
    ("O=C(Nc1ccc2ncc(-c3ccoc3)cc2n1)NC1CCCC1", "human PI3Kα protein (Homo sapiens)", "6.00 to 7.00"),
]

Looking up `CN(CCO)CCn1cc(-c2cnc3ccc(NC(=O)NC4CCCC4)nc3c2)cn1` , I found its pIC50 recorded as > 7.00

Looking up `O=C(NCCCCc1ccc(F)cc1)Nc1ccc2ncc(-c3cn[nH]c3)cc2n1` , I found its pIC50 recorded as 6.00 to 7.00

Looking up `O=C(Nc1ccc2ncc(-c3cn[nH]c3)cc2n1)NC1CCCCCC1` , I found its pIC50 recorded as > 7.00

Looking up `Cn1cncc1-c1cnc2ccc(NC(=O)NC3CCCC3)nc2c1` , I found its pIC50 recorded as 6.00 to 7.00

###

Target: glutathione S-transferase (GST)-fusion human ERK2 protein (Homo sapiens, UniProt P28482)
Construct: purchased Carna Biosciences, Inc; host or cells: E. coli expression system
Assay: ERK2 enzyme assay (LabChip mobility shift)
Type: biochemical
Settings: IC50 class; 2 nM ERK2, 4.25 μM FL-Peptide 8, 43 μM ATP; read-out: ERK2 Inhibitory Activity
pIC50: −log10 of the molar value.
Assay readout: pIC50

# Compound, pIC50
records = [
    ("CN(C)CCCn1cc(-c2cnc3ccc(NC(=O)NC4CCCC4)nc3c2)cn1 [Compound 0210]", "6.00 to 7.00"),
    ("O=C(Nc1ccc2ncc(-c3cn[nH]c3)cc2n1)NC1CCOCC1 [Compound 0076]", "> 7.00"),
    ("COc1ccc(Nc2cnc3ccc(NC(=O)NC4CCCC4)nc3c2)cc1OC [Compound 0030]", "< 5.00"),
    ("O=C(Nc1ccc2ncc(N3CCN(c4ccccc4)CC3)cc2n1)NC1CCCC1 [Compound 0153]", "< 5.00"),
    ("O=C(Nc1ccc2ncc(-c3cnn(CCN4CCOCC4)c3)cc2n1)NS(=O)(=O)c1ccccc1 [Compound 0208]", "< 5.00"),
]

Looking up O=C(Nc1ccc2ncc(-c3cnn(CCN4CCCCC4)c3)cc2n1)NC1CCCC1 [Compound 0036] , I found its pIC50 recorded as > 7.00

Looking up CN(CCCNC(=O)Nc1ccc2ncc(-c3cn[nH]c3)cc2n1)c1ccccc1 [Compound 0105] , I found its pIC50 recorded as > 7.00

Looking up CCOC(=O)c1nn(C)cc1-c1cnc2ccc(NC(=O)NC3CCCC3)nc2c1 [Compound 0215] , I found its pIC50 recorded as 6.00 to 7.00
